relative survival (cellular ATP): recorded values
# Protocol text: protection against thapsigargin ER stress killing – CSM14.1 cells, ATP luminescence, primary screen (AID 1010);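 note: cell death triggered by about 15 µM thapsigargin; ATP read 24 h after thapsigargin was added; plate controls were thapsigargin with DMSO for no effect and DMSO without thapsigargin for full effect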
# Cond: CSM14.1 thapsigargin ER stress survival, stronger effect = higher value, screened at 15 µg/mL (by protocol)
The campaign covered roughly 48,000 compounds. About 160 (0.33%) were called active. This excerpt belongs to a sample that is enriched for actives.
Output spec: scalar in %, unitless text.

CCCCCCCCC(=O)N/N=C/c1ccsc1C    2.5
CONC(=O)c1ccc(C(=O)c2cc(OC)ccc2OC)cc1    6.5
CCSc1nnc2c(n1)OC(c1ccc(-c3ccc(Cl)cc3)o1)Nc1ccccc1-2 (stereo unspecified)    4.5
CCOC(=O)C(=Cc1ccc(-c2cccc(Cl)c2Cl)o1)C(=O)OCC    5.9
CCOc1ccc(/C=N/N2CCN(c3ccccc3OC)CC2)cc1OC    5.2

Now let's try a different one.
Query: Field request: relative survival (cellular ATP) | item: CCCN1C(=O)c2ccccc2NC1c1ccc(O)c(OC)c1 (stereo unspecified)
Reply: -2.6

###

# Protocol text: protection against thapsigargin ER stress killing – CSM14.1 cells, ATP luminescence, primary screen (AID 1010)
# Cond: CSM14.1 thapsigargin ER stress survival, screened at 15 µg/mL (by protocol)
The campaign covered roughly 48,000 compounds. About 160 (0.33%) were called active.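 Rule for the calls: active = survival measured by cellular ATP above 50% at 15 µg/ml in the first screen; inactive = the rest.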 Shown is part of a subset that was picked to be rich in actives.
Give one outcome, nothing more. List: label 1 (active), label 0 (inactive)

Cc1cc(Cl)ccc1NC(=O)CCc1ccccc1    label 0
CC1=C(C#N)c2nc(N)c(C#N)c(C)c2/C1=C/c1ccc(-c2cccc(Cl)c2Cl)o1    label 0
Cc1ccc(NC(=O)CC2Nc3cc(C)c(C)cc3NC2=O)cc1 (centres undefined)    label 0
CC1(C)CC(=O)C2=C(C1)Nc1ccccc1N(C(=O)Cc1ccccc1)C2c1cccc(F)c1 (centres undefined)    label 0

Query: Short answer needed: outcome of this test for `O=C(Nc1ccc(Br)c(Cl)c1)C(c1ccccc1)c1ccccc1` ?
Reply: label 0

Query: Quick one: `COc1cccc(/C=N/NC(=O)c2cc(-c3ccc4ccccc4c3)n[nH]2)c1`
Reply: label 0

Query: Quick one: COc1ccc(C(=O)NC(N2CCCCC2)C(Cl)(Cl)Cl)cc1OC (centres undefined)
Reply: label 0

###

relative survival (cellular ATP): recorded values
# Protocol text: protection against thapsigargin ER stress killing – CSM14.1 cells, ATP luminescence, primary screen (AID 1010)
# Cond: CSM14.1 thapsigargin ER stress survival, stronger effect = higher value, screened at 15 µg/mL (by protocol)
Screen size: about 48,000 compounds; about 160 (0.33%) were called active. What follows is part of a selection rich in actives, with near analogues and random picks from the rest.
Output spec: scalar in %, unitless text.

Worked cases, relative survival (cellular ATP) given:
Clc1ccc(/C=N\N2CCN(C(c3ccccc3)c3ccccc3)CC2)cc1    9.1
CCOC(=O)CCc1c(C)nc2c(C)c(-c3ccc(C)cc3)[nH]n2c1=O    8.2
CCN(CC)c1ccc(Nc2nc(-c3sc(C)nc3C)cs2)cc1    49.2
COc1ccc(C2/C(=C(\O)c3ccc(Cl)cc3)C(=O)C(=O)N2CCCn2ccnc2)cc1 (stereo not given)    13
Cc1[nH]n(-c2ccccc2)c(=O)c1C(c1ccc(C(F)(F)F)cc1)c1c(C)[nH]n(-c2ccccc2)c1=O    4.8

Query: Field request: relative survival (cellular ATP) | item: `COc1ccc(NC(=O)/C(C#N)=C/c2ccccc2[N+](=O)[O-])cc1`
Reply: 2.4

Query: Quick one: `Cc1ccc(Cl)cc1NC1=CC(=O)CC(C)(C)C1`
Reply: 10.7

###

# Protocol text: protection against thapsigargin ER stress killing – CSM14.1 cells, ATP luminescence, primary screen (AID 1010)
# Cond: CSM14.1 thapsigargin ER stress survival, stronger effect = higher value, screened at 15 µg/mL (by protocol)
About 160 (0.33%) of roughly 48,000 compounds were called active. What follows is part of a selection rich in actives, with near analogues and random picks from the rest.
relative survival (cellular ATP): recorded values
Output spec: scalar in %, unitless text.

COc1ccc(N2C(=O)/C(=C/c3cc(C)n(-c4ccc([N+](=O)[O-])cc4)c3C)C(=O)NC2=S)cc1    -5.8
Cc1ccccc1NC(=S)N1CCN(c2cccc(Cl)c2)CC1    6.6
COC(=O)C1=C(C)NC2=C(C(=O)c3ccccc32)C1c1ccc(-c2ccc([N+](=O)[O-])cc2C)o1 (stereo not given)    7.6
OC1(C#Cc2ccccc2)CCN(Cc2ccccc2)CC1    -6

Now let's try a different one.
Query: Field request: relative survival (cellular ATP) | item: `NS(=O)(=O)c1ccc(CCNC(=O)c2cccs2)cc1`
Reply: -2.4

###

# Protocol text: protection against thapsigargin ER stress killing – CSM14.1 cells, ATP luminescence, primary screen (AID 1010);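 note: cell death triggered by about 15 µM thapsigargin; ATP read 24 h after thapsigargin was added; plate controls were thapsigargin with DMSO for no effect and DMSO without thapsigargin for full effect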
# Cond: CSM14.1 thapsigargin ER stress survival, stronger effect = higher value, screened at 15 µg/mL (by protocol)
The whole screen tested about 48,000 compounds, of which about 160 (0.33%) were called active. The sample holds actives, similar compounds and a random draw of the others, so the mix is not that of the screen.
Property measured: relative survival (cellular ATP) (%)
Output spec: scalar in %, unitless text.

Worked cases, relative survival (cellular ATP) given:
CCOc1ccc(-n2c(O)c(C=C3C=CC=N3)c(=O)[nH]c2=O)cc1    2.3
CCOc1cc(C2NC(=S)NC(C)=C2C(=O)Nc2ccccc2C)ccc1O (configuration not stated)    -0.3
COc1ccc(C2/C(=C(\O)c3ccc(F)cc3)C(=O)C(=O)N2c2nncs2)cc1 (configuration not stated)    -1.4
CC(C)(C)CC(C)(C)NC(=O)CSc1nc2ccccc2[nH]1    12.7
O=S(=O)(O)c1cc(-n2nc3ccc4c(S(=O)(=O)O)cccc4c3n2)ccc1/C=C/c1ccccc1    6.1
CC(=O)Nc1ccc(NC(=O)c2ccccc2-c2ccccc2C(=O)O)cc1    7.5

Query: Field request: relative survival (cellular ATP) | item: `CSCCOC(=O)COc1ccc(/C=N/NC(=O)c2ccc(CN3CCOCC3)cc2)cc1`
Reply: 9.5

###

# Protocol text: protection against thapsigargin ER stress killing – CSM14.1 cells, ATP luminescence, primary screen (AID 1010);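 note: cell death triggered by about 15 µM thapsigargin; ATP read 24 h after thapsigargin was added; plate controls were thapsigargin with DMSO for no effect and DMSO without thapsigargin for full effect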
# Cond: CSM14.1 thapsigargin ER stress survival, screened at 15 µg/mL (by protocol)
The whole screen tested about 48,000 compounds, of which about 160 (0.33%) were called active.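 The calls were made as follows: active = survival measured by cellular ATP above 50% at 15 µg/ml in the first screen; inactive = the rest.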 The sample as a whole holds a higher share of actives than the screen did.
Give one outcome, nothing more. List: label 1 = active, label 0 = inactive

COc1ccc(NC2SC(=O)NC2=O)cc1 (configuration not stated)    label 0
COc1ccc(C(=O)Nc2sc3c(c2C(N)=O)CCCC3)cc1    label 0
O=c1[nH]c(=O)n(-c2ccc(Cl)cc2)c(O)c1/C=C1/C=CC=N1    label 1
O=c1[nH]c(=S)n(-c2cccc(Cl)c2)c(O)c1/C=C1/C=CC=N1    label 0
CCOc1cc(C=O)cc(I)c1OC(C)C    label 0

Query: Short answer needed: outcome of this test for `NC(=O)c1c(NC(=O)c2ccccc2F)sc2c1CCCCCC2` ?
Reply: label 1

Query: Quick one: `COc1cc2ccccc2cc1C(=O)Nc1ccccc1C`
Reply: label 0

Query: Quick one: `O=C(CNC(=O)C(c1ccccc1)c1ccccc1)N/N=C/c1cn[nH]c1-c1ccccc1`
Reply: label 0

Query: Quick one: `NC(=O)c1c(NC(=O)c2ccc(Br)cc2)sc2c1CCCCCC2`
Reply: label 0

Query: Quick one: `CCc1cccc(C)c1NC(=O)c1ccc(C)c([N+](=O)[O-])c1`
Reply: label 0

Query: Quick one: `O=c1nc2cc3[nH]c4c(=O)c5ccccc5c4[nH]c3cc2n1`
Reply: label 0

Query: Quick one: `CCN1C(=O)/C(=C/c2ccc(NC(=O)c3ccc4ncccc4c3)cc2)SC1=S`
Reply: label 0

Query: Quick one: COc1ccc(C2CC(C(F)(F)F)n3nc(C(=O)NCCc4ccccc4)c(Cl)c3N2)cc1OC (configuration not stated)
Reply: label 0

Query: Quick one: `Cc1c(C#N)c2nc3ccccc3n2c(=O)/c1=C\c1c(O)n(-c2ccc(Br)cc2)[nH]c1=O`
Reply: label 0

Query: Quick one: `CCN(CC)S(=O)(=O)c1ccc(NC(=O)c2ccc(OC)c(I)c2)cc1`
Reply: label 0

Query: Quick one: `O=C1NC(=S)S/C1=C\c1ccccc1OS(=O)(=O)c1ccc([N+](=O)[O-])cc1`
Reply: label 0

Query: Quick one: `C/C(CC(=O)Nc1cccc2ccccc12)=N\NC(=O)c1ccoc1C`
Reply: label 0

Query: Quick one: COc1ccc(C2/C(=C(\O)c3ccccc3)C(=O)C(=O)N2CCCCCC(=O)O)c(OC)c1 (configuration not stated)
Reply: label 0

###

# Protocol text: protection against thapsigargin ER stress killing – CSM14.1 cells, ATP luminescence, primary screen (AID 1010);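 note: cell death triggered by about 15 µM thapsigargin; ATP read 24 h after thapsigargin was added; plate controls were thapsigargin with DMSO for no effect and DMSO without thapsigargin for full effect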
# Cond: CSM14.1 thapsigargin ER stress survival, stronger effect = higher value, screened at 15 µg/mL (by protocol)
Out of some 48,000 compounds screened, about 160 (0.33%) were called active. Shown is part of a subset that was picked to be rich in actives.
relative survival (cellular ATP): recorded values
Output spec: scalar in %, unitless text.

Worked cases, relative survival (cellular ATP) given:
CC(=O)Nc1ccccc1NC(=O)COc1ccc(C)cc1C    6.5
CC(=O)c1ccc(NC(=S)NC(NC(=O)N(C)C)C(Cl)(Cl)Cl)cc1 (stereo not drawn)    -1.5
COc1ccc(N2C(=O)c3ccc(C(=O)Nc4cccc(O)c4)cc3C2=O)cc1    2
O=C(COc1ccccc1)Nc1cccc(NC(=O)c2ccco2)c1    9
O=S(=O)(/N=C/c1ccccc1)c1cccs1    1.2

Query: Field request: relative survival (cellular ATP) | item: O=C1CCCC2=C1C(c1ccc(Cl)cc1)Nc1ccc(C(=O)c3ccccc3)cc1N2 (stereo not drawn)
Reply: 72.5

Query: Quick one: `Cc1cc(OCC(=O)Nc2ccccc2C(N)=O)cc(C)c1Cl`
Reply: 2.7

Query: Quick one: `COc1cccc(/C=N/N2CCN(Cc3ccc(Cl)cc3)CC2)c1`
Reply: -4.1

Value source: PubChem BioAssay AID1010
